# maps each entry to its pIC50
Target: UniProtKB P0C6X7
Experiment: Inhibition of SCV helicase assessed as duplex-DNA unwinding by FRET based assay
Scale: pIC50 equals -log10([C]), with [C] in mol/L.

Consider the following illustrative entries.
>>> numeric_result("O=C(O)/C(O)=C/C(=O)c1ccc(OCc2ccccc2)cc1")
4.40
>>> numeric_result("O=C(O)/C(O)=C/C(=O)c1cccc(OCc2ccc(Cl)cc2)c1")
4.87
>>> numeric_result("O=C(O)/C(O)=C/C(=O)c1cccc(NCc2ccccc2)c1")
5.27
>>> numeric_result("O=C(O)/C(O)=C/C(=O)c1ccccc1OCc1ccc(Cl)cc1")
4.54

Next item in the queue.
Q: Could you tell me which pIC50 is on file for O=C(O)/C(O)=C/C(=O)c1cccc(NCc2ccc(Cl)cc2)c1 ?
A: 4.96

Origin of values: ChEMBL document CHEMBL1153308
